B1: LINE1-mini (parent)
chain: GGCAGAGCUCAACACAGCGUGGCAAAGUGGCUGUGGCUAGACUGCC

- Variants of: B1
- ASSAY REMARKS: self-cleavage, relative activity (ratio to wild type); higher = more cleavage; in vitro, sequencing; the parent is a self-cleaving ribozyme
READOUT TYPE: self-cleavage
Respond using a number only.

Field self-cleavage (entry A12U A24U ) reads 0.31

Field self-cleavage (entry G19C A24G ) reads 0.53

Field self-cleavage (entry A16G G35C ) reads 0.04

Field self-cleavage (entry C10G G29U ) reads 0.08

Field self-cleavage (entry G2C C23G ) reads 0.12

Field self-cleavage (entry U28A C45G ) reads 0.24

Field self-cleavage (entry G7C G30U ) reads 0.1

Field self-cleavage (entry C37A C46U ) reads 0.04

Field self-cleavage (entry U20G G21C ) reads 0.46

Field self-cleavage (entry C8A A41C ) reads 0.36

Field self-cleavage (entry G2C C46G ) reads 0.16

Field self-cleavage (entry C37U G40U ) reads 0.16

Field self-cleavage (entry U9A G40C ) reads 0.08

Field self-cleavage (entry G2A G27A ) reads 0.66

Field self-cleavage (entry G19C U20G ) reads 0.4

Field self-cleavage (entry C3A G19A ) reads 0.61

Field self-cleavage (entry U9C C23G ) reads 0.03

Field self-cleavage (entry C13U C18A ) reads 0.07

Field self-cleavage (entry C8A G17U ) reads 0.27

Field self-cleavage (entry A25C C31U ) reads 0.12

Field self-cleavage (entry G1C C8A ) reads 0.06

Field self-cleavage (entry A16G A26G ) reads 0.37

Field self-cleavage (entry C23U G29C ) reads 0.52

Field self-cleavage (entry G2A A25C ) reads 0.62

Field self-cleavage (entry U9A C10A ) reads 0.04

Field self-cleavage (entry A24G G40A ) reads 0.13

Field self-cleavage (entry C10U G35U ) reads 0.05

Field self-cleavage (entry G7A A26U ) reads 0.21

Field self-cleavage (entry U9G A12U ) reads 0.14

Field self-cleavage (entry G19U A25U ) reads 0.67

Field self-cleavage (entry C8A G36A ) reads 0.65

Field self-cleavage (entry A14G C45A ) reads 0.38

Field self-cleavage (entry G19A G30U ) reads 2.03

Field self-cleavage (entry G19U C46A ) reads 1.08

Field self-cleavage (entry G19A G27C ) reads 0.53

Field self-cleavage (entry C15U C42G ) reads 0.09

Field self-cleavage (entry G1A G21C ) reads 2.09

Field self-cleavage (entry G30U U32G ) reads 0.08

Field self-cleavage (entry G7A C15U ) reads 0.24

Field self-cleavage (entry C45A C46G ) reads 0.36

Field self-cleavage (entry C18G U38G ) reads 0.02

Field self-cleavage (entry A12G G30C ) reads 0.08

Field self-cleavage (entry A41G G44A ) reads 0.08

Field self-cleavage (entry A12U U38C ) reads 0.14

Field self-cleavage (entry G1C A41G ) reads 0.02

Field self-cleavage (entry A6C C15U ) reads 0.66

Field self-cleavage (entry A25U C45G ) reads 0.19

Field self-cleavage (entry A11C U43A ) reads 0.01

Field self-cleavage (entry U9A G36C ) reads 0.06

Field self-cleavage (entry U34C C42A ) reads 0.09

Field self-cleavage (entry A12C C23A ) reads 0.02

Field self-cleavage (entry U9A A14U ) reads 0.11

Field self-cleavage (entry A12C C18G ) reads 0.02

Field self-cleavage (entry G19A A26G ) reads 0.98

Field self-cleavage (entry G17C G44C ) reads 0.05

Field self-cleavage (entry G5A U20G ) reads 0.13

Field self-cleavage (entry C37G A39G ) reads 0.02

Field self-cleavage (entry C18G G22A ) reads 0.82

Field self-cleavage (entry G1A A14C ) reads 0.1

Field self-cleavage (entry C18G U43C ) reads 0.06

Field self-cleavage (entry C23U G29U ) reads 0.85

Field self-cleavage (entry C18U G27A ) reads 0.84

Field self-cleavage (entry U9G A12C ) reads 0.02

Field self-cleavage (entry A24U C31G ) reads 0.08

Field self-cleavage (entry U9G G27A ) reads 0.07

Field self-cleavage (entry G7U G36A ) reads 0.11

Field self-cleavage (entry C18G C46U ) reads 0.4

Field self-cleavage (entry U20C C46U ) reads 0.42

Field self-cleavage (entry C3G G35C ) reads 0.13

Field self-cleavage (entry G5A C15G ) reads 0.05

Field self-cleavage (entry G19U G27U ) reads 0.58

Field self-cleavage (entry G29A U38C ) reads 0.44

Field self-cleavage (entry A11G A25U ) reads 0.02

Field self-cleavage (entry A11U A14G ) reads 0.03

Field self-cleavage (entry U28A U32C ) reads 0.18

Field self-cleavage (entry A24C A26G ) reads 0.33

Field self-cleavage (entry C13U A41G ) reads 0.06

Field self-cleavage (entry G5A U9G ) reads 0.27

Field self-cleavage (entry G7A A26C ) reads 0.18

Field self-cleavage (entry U9C A11G ) reads 0.02

Field self-cleavage (entry C18U U20A ) reads 0.61

Field self-cleavage (entry G5U C15U ) reads 0.08

Field self-cleavage (entry A16U G27A ) reads 0.59

Field self-cleavage (entry A26G G40U ) reads 0.15

Field self-cleavage (entry G40A A41C ) reads 0.13

Field self-cleavage (entry C18U U43C ) reads 0.09

Field self-cleavage (entry A4U C10U ) reads 0.19

Field self-cleavage (entry A16G C46A ) reads 0.64

Field self-cleavage (entry A6C U9C ) reads 0.03

Field self-cleavage (entry U9G G36C ) reads 0.04

Field self-cleavage (entry U20C G22A ) reads 0.77
